- SYSTEM_NAME: HCV NS5B RdRp genotype 1b (Hepatitis C virus genotype 1b)
- Construct: The protein was expressed with an 18 amino acid C-terminal truncation to enhance the solubility; made in house; host or cells: E. coli BL21 (DE3), pET21a
- Sequence (Q9WMX2 2420-2992): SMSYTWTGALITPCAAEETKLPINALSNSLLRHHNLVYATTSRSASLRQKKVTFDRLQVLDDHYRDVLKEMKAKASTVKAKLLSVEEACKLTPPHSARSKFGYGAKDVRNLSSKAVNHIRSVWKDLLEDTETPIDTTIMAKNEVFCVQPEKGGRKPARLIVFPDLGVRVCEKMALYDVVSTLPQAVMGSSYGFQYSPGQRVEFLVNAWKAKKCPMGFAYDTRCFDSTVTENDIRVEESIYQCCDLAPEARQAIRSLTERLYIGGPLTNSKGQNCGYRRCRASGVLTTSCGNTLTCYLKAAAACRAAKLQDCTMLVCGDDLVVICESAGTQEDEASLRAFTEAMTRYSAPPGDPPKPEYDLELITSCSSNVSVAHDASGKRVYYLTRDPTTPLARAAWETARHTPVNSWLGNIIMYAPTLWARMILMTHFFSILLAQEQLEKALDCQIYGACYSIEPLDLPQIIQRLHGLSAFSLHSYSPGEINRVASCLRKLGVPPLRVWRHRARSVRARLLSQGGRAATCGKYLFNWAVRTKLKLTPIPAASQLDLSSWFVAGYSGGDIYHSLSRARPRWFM
- ASSAY: Modified HCV NS5B RdRp enzyme assay (with preincubation)
- Format: biochemical
- CONDITION: modified method (with preincubation)
pIC50: −log10 of the molar value.
Reported pIC50 is given for each of the following compounds.

{"COMPOUND": "O=C(O)c1ccc2c(C3CCCCC3)c3n(c2c1)CC(C(=O)N1CCOCC1)Cc1cccnc1-3 (centres unmarked)", "pIC50": "6.00 to 7.70"}
{"COMPOUND": "CN(C)S(=O)(=O)NC(=O)c1ccc2c(C3CCCCC3)c3n(c2c1)CC(O)Cc1ccccc1-3 (centres unmarked)", "pIC50": "6.00 to 7.70"}
{"COMPOUND": "COC(=O)c1ccc2c(C3CCCCC3)c3n(c2c1)CC(C(=O)N1CCOCC1)=Cc1ccncc1-3", "pIC50": "< 6.00"}
{"COMPOUND": "COC(=O)C1=Cc2cc(Cl)ccc2-c2c(C3CCCCC3)c3ccc(C(=O)OC)cc3n2C1", "pIC50": "< 6.00"}
{"COMPOUND": "O=C(NS(=O)(=O)C1CC1)c1ccc2c(C3CCCCC3)c3n(c2c1)CC(C(=O)N1CCOCC1)=Cc1ccccc1-3", "pIC50": "6.00 to 7.70"}
{"COMPOUND": "COc1cc(CNC(=O)c2ccc3c(C4CCCCC4)c4n(c3c2)CC(=O)Nc2ccccc2-4)ccc1O", "pIC50": "6.00 to 7.70"}
{"COMPOUND": "CC(C)(C)OC(=O)N1CCn2c(c(C3CCCCC3)c3ccc(C(=O)O)cc32)-c2ccccc21", "pIC50": "6.00 to 7.70"}
{"COMPOUND": "CN(C)CCNC(=O)C1Cc2ccccc2-c2c(C3CCCCC3)c3ccc(C(=O)NC4(C(=O)Nc5ccc(/C=C/C(=O)O)cc5)CCCC4)cc3n2C1 (centres unmarked)", "pIC50": "6.00 to 7.70"}
{"COMPOUND": "O=C(NS(=O)(=O)C1CC1)c1ccc2c(C3CCCCC3)c3n(c2c1)CC=Cc1ncccc1-3", "pIC50": "6.00 to 7.70"}
{"COMPOUND": "O=C(NS(=O)(=O)c1ccccc1)c1ccc2c(C3CCCCC3)c3n(c2c1)CCCc1ncccc1-3", "pIC50": "6.00 to 7.70"}
{"COMPOUND": "COC(=O)c1ccc2c(C3CCCCC3)c3n(c2c1)CNc1ccccc1-3", "pIC50": "< 6.00"}
{"COMPOUND": "COC(=O)c1ccc2c(C3CCCCC3)c3n(c2c1)CC(C(=O)OCc1ccccc1)=Cc1ccccc1-3 [drawing 223]", "pIC50": "< 6.00"}
{"COMPOUND": "COC(=O)C1=Cc2cccnc2-c2c(C3CCCCC3)c3ccc(C(=O)OC)cc3n2C1", "pIC50": "< 6.00"}
{"COMPOUND": "CN(C)C(=O)c1ccc2c(C3CCCCC3)c3n(c2c1)CC(C(=O)N1CCOCC1)=Cc1ccccc1-3", "pIC50": "6.00 to 7.70"}
{"COMPOUND": "O=C(O)/C=C/c1ccc(NC(=O)C2(NC(=O)c3ccc4c(C5CCCCC5)c5n(c4c3)CCOc3ncccc3-5)CCCC2)cc1", "pIC50": "6.00 to 7.70"}
{"COMPOUND": "CCS(=O)(=O)NC(=O)c1ccc2c(C3CCCCC3)c3n(c2c1)CC(C(=O)N1CCOCC1)=Cc1ccccc1-3", "pIC50": "6.00 to 7.70"}
{"COMPOUND": "O=C(NC1(C(=O)Nc2ccc(-c3csc(C(=O)O)n3)cc2)CCCC1)c1ccc2c(C3CCCCC3)c3n(c2c1)CCCc1ccccc1-3", "pIC50": "6.00 to 7.70"}
